assayed-system: CFTR (Homo sapiens)
Construct: results in the phosphorylation and opening of CFTR anion channels
assay-remarks: T84 assay (FLIPR membrane potential dye, forskolin/IBMX-stimulated CFTR channel activity)
assay-conditions: Human colonic T84 cells; 10 μM forskolin + 100 μM IBMX; average of at least 2 runs unless marked n = 1
pIC50: −log10 of the molar value.
observable: pIC50

smiles-text | assay-result
CC(C)(C)c1ccc(CNC(=O)c2cc(-c3cc(Cl)c(O)c(Cl)c3)n[nH]2)cc1 | 4.76

[A] O=C(NCc1ccc(F)c(C(F)(F)F)c1)c1cc(-c2cc(Cl)c(O)c(Cl)c2)n[nH]1
[B] O=C(NCc1cccc(OC(F)(F)F)c1)c1cc(-c2cc(Cl)c(O)c(Cl)c2)n[nH]1
[C] CN(Cc1cccc(C(F)(F)F)c1)C(=O)c1cc(-c2cc(Cl)c(O)c(Cl)c2)n[nH]1
[D] O=C(NCCC(c1ccccc1)c1ccccc1)c1cc(-c2cc(Cl)c(O)c(Cl)c2)n[nH]1
Ask | Sort entries by pIC50 from minimum to maximum value. // ordering of labels required in reply
Reply | A, B, C, D
(A: 4.53, B: 4.73, C: 5.04, D: 5.46)

----------
assayed-system: CFTR (Homo sapiens, UniProt P13569)
Construct: results in the phosphorylation and opening of CFTR anion channels
Sequence (P13569 whole entry): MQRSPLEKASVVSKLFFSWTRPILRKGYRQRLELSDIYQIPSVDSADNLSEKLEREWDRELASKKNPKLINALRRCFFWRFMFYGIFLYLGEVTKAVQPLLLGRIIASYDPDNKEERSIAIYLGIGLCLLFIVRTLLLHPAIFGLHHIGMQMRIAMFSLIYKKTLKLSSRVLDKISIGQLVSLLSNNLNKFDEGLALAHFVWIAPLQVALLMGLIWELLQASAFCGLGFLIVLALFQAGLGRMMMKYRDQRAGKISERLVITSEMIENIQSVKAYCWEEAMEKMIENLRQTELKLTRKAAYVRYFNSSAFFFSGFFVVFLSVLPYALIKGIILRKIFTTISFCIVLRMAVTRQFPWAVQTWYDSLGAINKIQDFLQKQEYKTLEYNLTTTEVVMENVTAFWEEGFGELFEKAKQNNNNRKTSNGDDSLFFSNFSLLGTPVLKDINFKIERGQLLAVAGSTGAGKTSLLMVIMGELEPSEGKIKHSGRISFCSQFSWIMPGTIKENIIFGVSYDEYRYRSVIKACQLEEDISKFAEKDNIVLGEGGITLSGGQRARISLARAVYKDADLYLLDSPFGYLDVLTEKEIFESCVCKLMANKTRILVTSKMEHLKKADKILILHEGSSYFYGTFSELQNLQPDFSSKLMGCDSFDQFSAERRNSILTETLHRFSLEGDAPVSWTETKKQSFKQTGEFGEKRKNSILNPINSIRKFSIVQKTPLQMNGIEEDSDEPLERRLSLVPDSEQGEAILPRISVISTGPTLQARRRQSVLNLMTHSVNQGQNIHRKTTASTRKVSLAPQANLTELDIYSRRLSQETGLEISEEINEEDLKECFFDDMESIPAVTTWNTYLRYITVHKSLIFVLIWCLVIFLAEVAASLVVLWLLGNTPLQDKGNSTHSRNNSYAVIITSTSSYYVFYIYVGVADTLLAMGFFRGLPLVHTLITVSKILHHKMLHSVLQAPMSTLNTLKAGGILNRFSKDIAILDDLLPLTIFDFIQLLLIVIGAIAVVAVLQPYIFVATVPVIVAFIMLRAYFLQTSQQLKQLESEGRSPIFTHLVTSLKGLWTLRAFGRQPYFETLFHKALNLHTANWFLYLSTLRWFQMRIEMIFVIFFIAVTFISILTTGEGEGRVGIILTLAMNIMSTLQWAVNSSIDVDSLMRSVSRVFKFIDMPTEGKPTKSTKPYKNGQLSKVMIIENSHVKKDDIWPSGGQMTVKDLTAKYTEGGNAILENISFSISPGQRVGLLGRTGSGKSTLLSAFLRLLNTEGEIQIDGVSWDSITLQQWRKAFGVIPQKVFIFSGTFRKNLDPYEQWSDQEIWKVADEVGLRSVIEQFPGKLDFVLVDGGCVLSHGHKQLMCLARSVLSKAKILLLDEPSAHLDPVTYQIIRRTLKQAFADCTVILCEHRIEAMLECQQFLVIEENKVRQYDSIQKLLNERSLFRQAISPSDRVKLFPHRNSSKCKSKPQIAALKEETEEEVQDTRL
assay-remarks: T84 assay (FLIPR membrane potential dye, forskolin/IBMX-stimulated CFTR channel activity)
assay-conditions: Human colonic T84 cells; 10 μM forskolin + 100 μM IBMX; average of at least 2 runs unless marked n = 1
observable: IC50 (µM)

smiles-text | assay-result
O=C(NCc1ccc(Cl)c(Cl)c1)c1cc(-c2cc(Cl)c(O)c(Cl)c2)n[nH]1 | 29.5
CN(Cc1ccc(Oc2ccccn2)cc1)C(=O)c1cc(-c2cc(Cl)c(O)c(Cl)c2)n[nH]1 | 21
O=C(c1cc(-c2cc(Cl)c(O)c(Cl)c2)n[nH]1)N1CCN(c2cccc(C(F)(F)F)c2)CC1 | 29.6
CN(Cc1ccc(C(C)(C)C)cc1)C(=O)c1cc(-c2cc(Cl)c(O)c(Cl)c2)n[nH]1 | 16.5
CN(Cc1ccc(Oc2ccccc2)cc1)C(=O)c1cc(-c2cc(Cl)c(O)c(Cl)c2)n[nH]1 | 21.1
